Consider the following compounds; for each one, report its Activity.
# ASSAY NOTES: Irreversible inhibition of human intestinal carboxylesterase assessed as residual activity preincubated with enzyme followed by compound dilution measured after 18 hrs using o-NPA as substrate relative to control
Entry rule: numbers only, all in %.

Recorded Activity of Cc1cccc2c1ccc1c3c(c(=O)oc(=O)c12)[C@@H](C)CO3 , please.
18

Recorded Activity of O=C(C(=O)c1ccccc1)c1ccccc1 [BENZIL] , please.
98

Recorded Activity of Cc1cccc2c1ccc1c3occ(C)c3c(=O)oc(=O)c21 , please.
4

###

So I've got pIC50 readings for Cholinesterase (Homo sapiens, UniProt P06276), take a look.
Entry type: numeric. Quantity: pIC50, the -log10 of concentration in molar units.

Recorded pIC50 of C[C@H]1COc2c1c(=O)oc(=O)c1c3c(ccc21)C(C)(C)CCC3 , please.
5.55

Recorded pIC50 of Cc1coc2c1c(=O)oc(=O)c1c3c(ccc12)C(C)(C)CCC3 , please.
5.10

Recorded pIC50 of Cc1cccc2c1ccc1c3c(c(=O)oc(=O)c12)[C@@H](C)CO3 , please.
5.11
